Origin of the recorded values: PubChem BioAssay (NCI)

test system: EKVX NSCLC; assay: NCI-60 one-dose screen, 48 h (100 = growth as untreated, 0 = no growth, -100 = all killed); settings: 10 µM unless noted
The panel holds about 83,000 compounds, 20% with a hit somewhere; the sample as a whole holds those more often.
growth below 90% gives rule not met; growth at or above it gives rule met.

# molecule, group
records = [
    ("COc1ccc(Cn2cc(C(=O)N=Nc3c(O)[nH]c4ccc(Br)cc34)nn2)cc1", "rule met"),
    ("CCCCCCCCCCCCCCCCCCOc1ccccc1CC(=O)OCC[N+]1(C)CCCCC1", "rule not met"),
    ("O=C(Nc1ncc(Cc2ccccc2)s1)c1cc(-c2ccccc2)nc2ccccc12", "rule met"),
    ("CC1(C)CC(=O)C2=C(C1)OC(C(=O)c1ccccc1)C2c1cccc(Oc2ccccc2)c1 (centres undefined)", "rule not met"),
    ("N#CC1=C(N)Oc2c(ccc3cccnc23)C1c1ccccc1 (centres undefined)", "rule not met"),
    ("CCOc1cc(\\C=N/N=C(N)/C(N)=N\\N=C/c2ccc(O)c(OCC)c2)ccc1O", "rule met"),
    ("CC1=NN(c2cccc(Cl)c2)C(=O)/C1=C\\C=C\\c1ccccc1", "rule not met"),
    ("COc1ccc(Nc2nccc(Nc3ccc4[nH]ncc4c3)n2)cc1", "rule not met"),
    ("[2H]C([2H])([2H])Oc1c(F)cccc1/C=C/C(=O)/C=C(O)/C=C/c1cccc(F)c1OC([2H])([2H])[2H]", "rule met"),
    ("CCOC(=O)CC1C(CNC(=O)NC)OC(n2cnc3c(NC(=O)Nc4ccccc4)ncnc32)C1O[Si](C)(C)C(C)(C)C (centres undefined)", "rule not met"),
    ("O=C(Nc1ccc(Oc2cccc(F)c2)c(Cl)c1)c1cnccn1", "rule not met"),
    ("COc1ccc(-c2nc3cc(C(=O)NC4CCCCC4)ccc3n2C2CCCCC2)cc1", "rule not met"),
    ("CC(=O)[C@H]1CC[C@]2(C)[C@@H]1CC[C@@H]1[C@@]3(C)C/C(=C/c4cccnc4)C(=O)C(C)(C)[C@@H]3CC[C@]12C", "rule not met"),
]
